subject_of_test: Human sodium/glucose co-transporter type 2 (SGLT2) (Homo sapiens (Human), UniProt P31639)
Sequence (P31639 whole entry): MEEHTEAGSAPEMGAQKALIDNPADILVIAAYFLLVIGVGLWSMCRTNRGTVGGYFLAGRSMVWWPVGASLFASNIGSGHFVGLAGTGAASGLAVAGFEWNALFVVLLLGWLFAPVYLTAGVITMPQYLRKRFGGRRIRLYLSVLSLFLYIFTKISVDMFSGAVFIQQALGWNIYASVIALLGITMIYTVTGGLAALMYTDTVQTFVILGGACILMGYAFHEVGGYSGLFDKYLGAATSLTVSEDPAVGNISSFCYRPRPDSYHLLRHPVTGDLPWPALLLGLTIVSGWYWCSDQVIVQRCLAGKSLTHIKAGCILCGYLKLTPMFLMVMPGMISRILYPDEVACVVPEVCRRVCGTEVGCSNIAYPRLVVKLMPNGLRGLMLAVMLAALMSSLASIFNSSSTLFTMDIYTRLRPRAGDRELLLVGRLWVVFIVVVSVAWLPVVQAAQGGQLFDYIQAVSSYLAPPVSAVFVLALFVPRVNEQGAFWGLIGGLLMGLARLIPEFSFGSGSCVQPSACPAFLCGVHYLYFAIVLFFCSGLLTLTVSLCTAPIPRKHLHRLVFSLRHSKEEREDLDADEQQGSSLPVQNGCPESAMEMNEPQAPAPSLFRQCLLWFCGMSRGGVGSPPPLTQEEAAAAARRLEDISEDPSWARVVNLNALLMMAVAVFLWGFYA
experiment_notes: In vitro human SGLT2 inhibition assay (14C-AMG uptake)
test_context: HEK293 cells expressing human HA-SGLT2, 14C-AMG uptake
pIC50: −log10 of the molar value.
assay_endpoint: pIC50

# count of solved cases: 2
CS[C@H]1O[C@@H](c2ccc(C)c(Cc3ccc(OCCCC(=O)NC(C)(C)C(=O)N4CCN(C)CC4)cc3)c2)[C@H](O)[C@@H](O)[C@@H]1O :: > 8.00
CS[C@H]1O[C@@H](c2ccc(C)c(Cc3ccc(OCCCC(=O)N[C@@H](CC(N)=O)C(N)=O)cc3)c2)[C@H](O)[C@@H](O)[C@@H]1O :: > 8.00

Query string: Fill in the blank: the reported pIC50 of CS[C@H]1O[C@@H](c2ccc(C)c(Cc3ccc(CCCCC(=O)NC(CO)(CO)CO)cc3)c2)[C@H](O)[C@@H](O)[C@@H]1O is ____.
Result string: > 8.00

Query string: Fill in the blank: the reported pIC50 of CS[C@H]1O[C@@H](c2ccc(C)c(Cc3ccc(CCCCC(=O)NC(C)(C)C(=O)N4CCN(C)CC4)cc3)c2)[C@H](O)[C@@H](O)[C@@H]1O is ____.
Result string: > 8.00

Query string: Fill in the blank: the reported pIC50 of CS[C@H]1O[C@@H](c2ccc(C)c(Cc3ccc(/C=C/C(=O)N4CCN(C)CC4)cc3)c2)[C@H](O)[C@@H](O)[C@@H]1O is ____.
Result string: > 8.00

Query string: Fill in the blank: the reported pIC50 of CS[C@H]1O[C@@H](c2ccc(C)c(Cc3ccc(CCCCNCC(C)(C)C(N)=O)cc3)c2)[C@H](O)[C@@H](O)[C@@H]1O is ____.
Result string: > 8.00

Entry source: patent US9688710B2
